Form field: IC50 (one value per entry).
# Tested target: Granzyme B (human lymphocytes) (Homo sapiens (Human), UniProt P10144)
# Sequence (P10144 21-247): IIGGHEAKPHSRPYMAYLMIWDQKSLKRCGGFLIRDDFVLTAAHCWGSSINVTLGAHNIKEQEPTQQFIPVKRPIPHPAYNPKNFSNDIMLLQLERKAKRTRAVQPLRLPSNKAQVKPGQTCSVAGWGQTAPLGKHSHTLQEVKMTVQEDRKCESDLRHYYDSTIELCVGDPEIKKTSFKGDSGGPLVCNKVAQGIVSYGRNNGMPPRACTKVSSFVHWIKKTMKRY
# Assay comment: human Granzyme B biochemical assay
# Test settings: Granzyme B (human lymphocytes) 5 nM, substrate Ac-IETD-AFC 200 μM, Cpd incubation with enzyme 30 mins, 22° C., read time 60 mins; read-out: IC50

Lab note: record IC50 of CC(C)C[C@H](NC(=O)Cc1csc2ccccc12)C(=O)N[C@H]1CCc2cccc3c2N(C1=O)[C@H](C(=O)NCc1c[nH]nn1)C3 tested on Granzyme B (human lymphocytes) (Homo sapiens (Human), UniProt P10144).
1 to 5 µM

Lab note: record IC50 of O=C(N[C@@H](Cc1ccc(O)cc1)C(=O)N[C@H]1CCc2cccc3c2N(C1=O)[C@H](C(=O)NCc1c[nH]nn1)C3)c1ccccc1 tested on Granzyme B (human lymphocytes) (Homo sapiens (Human), UniProt P10144).
> 5 µM

Lab note: record IC50 of CC[C@H](C)[C@H](NC(=O)COCCF)C(=O)N[C@H]1CCc2cccc3c2N(C1=O)[C@H](C(=O)NCc1ccc(Cl)cc1)C3 tested on Granzyme B (human lymphocytes) (Homo sapiens (Human), UniProt P10144).
> 5 µM

Lab note: record IC50 of O=C(Cc1csc2ccccc12)N[C@H](C(=O)N[C@H]1CCc2cccc3c2N(C1=O)[C@H](C(=O)NCc1c[nH]nn1)C3)c1ccccc1 tested on Granzyme B (human lymphocytes) (Homo sapiens (Human), UniProt P10144).
> 5 µM

Lab note: record IC50 of O=C(Cc1ccccc1)N[C@@H](CO)C(=O)N[C@H]1CCc2cccc3c2N(C1=O)[C@H](C(=O)NCc1c[nH]nn1)C3 tested on Granzyme B (human lymphocytes) (Homo sapiens (Human), UniProt P10144).
> 5 µM

Lab note: record IC50 of CC(=O)N[C@H](C(=O)N[C@H]1CCc2cccc3c2N(C1=O)[C@H](C(=O)N[C@@H](C)C(=O)O)C3)C(C)C tested on Granzyme B (human lymphocytes) (Homo sapiens (Human), UniProt P10144).
> 5 µM

Lab note: record IC50 of CC[C@H](C)[C@H](NC(=O)COCCF)C(=O)N[C@H]1CCc2cccc3c2N(C1=O)[C@H](C(=O)NCc1cccc(Cl)c1)C3 tested on Granzyme B (human lymphocytes) (Homo sapiens (Human), UniProt P10144).
> 5 µM

Lab note: record IC50 of COc1cccc(C(=O)N[C@H](C(=O)N[C@H]2CCc3cccc4c3N(C2=O)[C@H](C(=O)NCc2c[nH]nn2)C4)C(C)C)c1 tested on Granzyme B (human lymphocytes) (Homo sapiens (Human), UniProt P10144).
0.001 to 0.3 µM

Lab note: record IC50 of CC[C@H](C)[C@H](NC(=O)COCCF)C(=O)N[C@H]1CNc2cccc3c2N(C1=O)[C@H](C(=O)NCc1c[nH]nn1)C3 tested on Granzyme B (human lymphocytes) (Homo sapiens (Human), UniProt P10144).
0.001 to 0.3 µM

Lab note: record IC50 of O=C(Cc1csc2ccccc12)N[C@H](C(=O)N[C@H]1CCc2cccc3c2N(C1=O)[C@H](C(=O)NCc1c[nH]nn1)C3)C1CCCCC1 tested on Granzyme B (human lymphocytes) (Homo sapiens (Human), UniProt P10144).
0.301 to 1 µM

Lab note: record IC50 of CCC(CC)[C@H](NC(=O)Cc1csc2ccccc12)C(=O)N[C@H]1CCc2cccc3c2N(C1=O)[C@H](C(=O)NCc1c[nH]nn1)C3 tested on Granzyme B (human lymphocytes) (Homo sapiens (Human), UniProt P10144).
0.301 to 1 µM

* * *

Form field: IC50 (one value per entry).
# Tested target: Granzyme B (human lymphocytes) (Homo sapiens (Human))
# Assay comment: human Granzyme B biochemical assay
# Test settings: Granzyme B (human lymphocytes) 5 nM, substrate Ac-IETD-AFC 200 μM, Cpd incubation with enzyme 30 mins, 22° C., read time 60 mins; read-out: IC50

Example entries begin here.
CC[C@H](C)[C@H](NC(=O)COCCF)C(=O)N[C@H]1CCc2cccc3c2N(C1=O)[C@H](C(=O)NCc1cc[nH]c1)C3 [Compound C107] ... > 5000 nM
CC(=O)N[C@H](C(=O)N[C@H]1COc2cccc3c2N(C1=O)[C@H](C(=O)NCc1c[nH]nn1)C3)C(C)C [Compound C101] ... 1 to 300 nM
O=C(O)CC[C@H](NC(=O)Cc1csc2ccccc12)C(=O)N[C@H]1CCc2cccc3c2N(C1=O)[C@H](C(=O)NCc1c[nH]nn1)C3 [Compound C008] ... > 5000 nM
COc1ccccc1C(=O)N[C@H](C(=O)N[C@H]1CCc2cccc3c2N(C1=O)[C@H](C(=O)NCc1c[nH]nn1)C3)C(C)C [Compound C063] ... 1 to 300 nM

Okay, now this molecule:
Look up and state reported IC50 for CC[C@H](C)[C@H](NC(=O)COCCF)C(=O)N[C@H]1CCc2cccc3c2N(C1=O)[C@H](C(=O)NCc1cnsc1)C3 [Compound C118]
> 5000 nM

* * *

Form field: pIC50 (one value per entry).
# Tested target: Granzyme B (human lymphocytes) (Homo sapiens (Human))
# Assay comment: human Granzyme B biochemical assay
# Test settings: Granzyme B (human lymphocytes) 5 nM, substrate Ac-IETD-AFC 200 μM, Cpd incubation with enzyme 30 mins, 22° C., read time 60 mins; read-out: IC50
pIC50: −log10 of the molar value.

COc1ccc(C(=O)N[C@H](C(=O)N[C@H]2CCc3cccc4c3N(C2=O)[C@H](C(=O)NCc2c[nH]nn2)C4)C(C)C)cc1 ... 6.52 to 9.00
O=C(Cc1csc2ccccc12)NCC(=O)N[C@H]1CCc2cccc3c2N(C1=O)[C@H](C(=O)NCc1c[nH]nn1)C3 ... < 5.30
CC(C)C[C@H](NC(=O)Cc1ccccc1)C(=O)N[C@H]1CCc2cccc3c2N(C1=O)[C@H](C(=O)NCc1c[nH]nn1)C3 ... 5.30 to 6.00

Look up and state reported pIC50 for Cc1cccc(C(=O)N[C@H](C(=O)N[C@H]2CCc3cccc4c3N(C2=O)[C@H](C(=O)NCc2c[nH]nn2)C4)C(C)C)c1
6.52 to 9.00
